# measurementTarget: Proteasome Macropain subunit MB1 (Homo sapiens)
# Sequence (P28074 whole entry): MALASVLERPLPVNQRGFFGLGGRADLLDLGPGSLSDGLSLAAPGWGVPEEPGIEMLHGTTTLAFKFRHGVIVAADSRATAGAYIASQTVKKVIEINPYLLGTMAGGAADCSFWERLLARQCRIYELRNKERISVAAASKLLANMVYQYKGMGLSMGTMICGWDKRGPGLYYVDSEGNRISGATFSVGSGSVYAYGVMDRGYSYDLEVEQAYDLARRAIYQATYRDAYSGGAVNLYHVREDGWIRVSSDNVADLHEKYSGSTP
# testDetails: Inhibition of human hepatic cell derived 20s constitutive proteasome beta5 chymotrypsin-like activity using Suc-WLA-AMC as substrate preincubated for 15 mins followed by substrate addition and measured after 60 mins by fluorescence assay
pIC50: −log10 of the molar value.
measurementName: pIC50

Field: example entries. Status: answers known.
Cc1ccc(CNC(=O)[C@@H]2COCCCCCCOc3c(cnn3C)C(=O)N[C@@H](CC(=O)NCC(C)(C)C)C(=O)N2)cc1; 7.52
Cc1ccc(CNC(=O)[C@@H]2COCCCCCCOc3ccccc3C(=O)N[C@@H](CC(=O)NCC(C)(C)C)C(=O)N2)cc1; 7.17

1: Cc1ccc(CNC(=O)[C@@H]2COCCCCCCCc3c(cnn3C)C(=O)N[C@@H](CC(=O)NCC(C)(C)C)C(=O)N2)cc1
2: Cc1ccc(CNC(=O)[C@H]2NC(=O)[C@H](CC(=O)NCC(C)(C)C)NC(=O)c3nccn3CCCCCCCO[C@H]2C)cc1
query: 1 or 2 : whose pIC50 is greater? Give the label of your selection.
result: 1
(1: 7.54, 2: 7.30)

P: Cc1ccc(CNC(=O)[C@@H]2Cc3cn(c4ccccc34)CCCCCn3ccnc3C(=O)N[C@@H](CC(=O)NCC(C)(C)C)C(=O)N2)cc1
Q: CC(C)(C)CNC(=O)C[C@@H]1NC(=O)c2ccccc2OCCCCCCOC[C@@H](C(=O)NCc2ccccc2)NC1=O
R: CCCCCCOC[C@H](NC(=O)[C@H](CC(=O)NCC(C)(C)C)NC(=O)c1cnn(C)c1CCC)C(=O)NCc1ccc(C)cc1
S: CC(C)(C)CNC(=O)C[C@@H]1NC(=O)c2ccccc2OCCCCCCOC[C@@H](C(=O)NCc2ccccc2Cl)NC1=O
query: Order each entry by recorded pIC50, climbing from the minimum. Would you mind listing the labels in the order asked for?
result: Q, S, P, R

====

# remaining at 0.5 h, 1 µM per entry
# testDetails: Stability in human liver microsomes assessed as parent compound remaining at 1 uM measured after 30 mins by LC-MS/MS analysis
# Type: ADME, Microsome
# measurementSetup: read-out: Stability

Cc1ccc(CNC(=O)[C@@H]2COCCCCCCCc3c(cnn3C)C(=O)N[C@@H](CC(=O)NCC(C)(C)C)C(=O)N2)cc1; ≥ 66%
CCCCCCOC[C@H](NC(=O)[C@H](CC(=O)NCC(C)(C)C)NC(=O)c1cnn(C)c1CCC)C(=O)NCc1ccc(C)cc1; < 5%

Let's switch to this compound now.
query: remaining at 0.5 h, 1 µM lookup needed for `Cc1ccc(CNC(=O)[C@@H]2COCCCCCCCn3ccnc3C(=O)N[C@@H](CC(=O)NCC(C)(C)C)C(=O)N2)cc1` , thanks.
result: < 20%

These entries and their values trace back to ChEMBL document CHEMBL4411311.
